Test system: MCF7 breast
method_description: NCI-60 one-dose screen, 48 h (100 = growth as untreated, 0 = no growth, -100 = all killed)
condition_set: 10 µM
About 83,000 compounds went through this panel and 20% of them were active in at least one assay; those are over-represented in the sample as a whole. Activity calls are given as the source filed them. How the source made its calls: active means growth percent below 10; inactive means the rest.
metric: growth

> print(dat)
                                    molecule  observed.measurement
 1  C#Cc1ccc(S(=O)(=O)Nc2cccc(-c3csc(NC(C)=O)n3)c2)cc1      64.5% (inactive)
 2  O=C(COc1ccc(NC(=O)Nc2ccc(Cl)cc2)cc1)N=Nc1c(O)[nH]c2ccc([N+](=O)[O-])cc12       -36.4% (active)
 3  C/C(=N\NC(N)=S)c1ccc(Nc2nc(SC(C)C)nc(-c3ccccc3)c2C#N)cc1      64.2% (inactive)
 4  C=CC(=O)Nc1ccc(C(=O)/C=C/c2ccc(N(C)CCF)cc2)c(O)c1       -19.5% (active)
 5  Cc1ccc(/C=C/C(=O)c2ccc(S(=O)(=O)NCCNc3nc(Nc4ccc(F)cc4)nc(N(C)C)n3)cc2)cc1       -55.8% (active)
 6  CN1CCN(c2ccc(Nc3nc(N4CCN(S(=O)(=O)c5ccc(F)cc5)CC4)c4sccc4n3)cc2)CC1       -77.6% (active)
 7  CC[C@@]1(O)C(=O)OCc2c1cc1n(c2=O)Cc2c-1nc1cc(F)c(C)c3c1c2[C@@H](N)CC3        8.66% (active)
 8  O=C(NO)c1ccc(CNc2nc(-c3ccccc3)c3ccccc3n2)cc1        7.92% (active)
 9  N#Cc1c(-c2ccc(F)cc2)nc(SCc2ccc(F)cc2)nc1N1CCOCC1      63.7% (inactive)
10  COc1cccc2nc(Nc3cccc(NC(=O)c4ccc(CN5CCCN(C)CC5)c(C(F)(F)F)c4)c3)ccc12         -90% (active)
11  COc1nccnc1NS(=O)(=O)c1ccc(NC2=C(Cl)C(=O)c3nc(C)ccc3C2=O)cc1       108% (inactive)
12  Cc1ccc(/C=C/C(=O)c2ccc(NC(=O)CSc3nnc(-c4c[nH]c5ccccc45)n3-c3ccccc3)cc2)cc1        8.55% (active)
13  O=C(CNc1nc(-c2ccccc2)cs1)Nc1ccc(Cl)cc1[N+](=O)[O-]       -59.3% (active)
14               CN1C(=O)/C(=C/c2nccs2)SC1=S      38.2% (inactive)
15    O=C(CNc1nc(-c2ccccc2)cs1)Nc1ccc(Cl)cc1       -85.5% (active)
16   O=C(Nc1cc(Cl)cc(Cl)c1)Nc1cc(Cl)cc(Cl)c1       -21.2% (active)
17  O=C(N/N=C/c1ccc(B(O)O)o1)c1[nH]c2ccc(Br)cc2c1-c1ccccc1      13.8% (inactive)
18  COc1ccc2nc(Cl)c(-c3cc(-c4ccccc4)nc(=O)[nH]3)cc2c1      10.2% (inactive)
19  O=C(c1ccc([N+](=O)[O-])c([N+](=O)[O-])c1O)n1[nH]c(=O)c2ccccc2c1=O      30.5% (inactive)
20  O=C(Nc1nc2ccc([N+](=O)[O-])cc2s1)Nc1cc(Cl)ccc1I       -28.9% (active)
21  Cn1cc(/C=N/Nc2ccnc3cc(Cl)ccc23)c2ccccc21       -78.4% (active)
22  O=c1[nH]n(C(=S)N/N=C/c2ccc(F)cc2)c(=O)c2ccccc12      15.9% (inactive)
23  CC1=C(C(=O)OC(C)C)C(c2ccc(O)cc2)NC(=S)N1 (centres undefined)      97.7% (inactive)
24  CC(C)(C)Nc1nc2cc(Cl)c(Cl)cc2nc1S(C)(=O)=O      58.8% (inactive)
25  CN1CCN(c2ccc(C(=O)/C=C/c3cc(Br)ccc3F)cc2)CC1        2.37% (active)
26  COc1ccc2nc(Nc3cccc(NC(=O)c4ccc(CN5CCN(C)CC5)c(C(F)(F)F)c4)c3)ccc2c1       -97.1% (active)
27  OCCCNc1oc(-c2ccccc2)nc1[P+](c1ccccc1)(c1ccccc1)c1ccccc1       0.534% (active)
28    Cc1ccc2nc3c(nc2c1)c1cc(I)ccc1n3CCN(C)C       -4.43% (active)
29  O=C(Nc1ccncc1)c1ccc(-n2c(=O)[nH]c3ccccc3c2=O)cc1      92.3% (inactive)
30  Cn1c(O)c(N=Nc2nc(-c3cc4ccccc4oc3=O)cs2)c2cc(Br)ccc21      77.4% (inactive)
31  N#Cc1c(NC(=O)c2ccc(C(F)(F)F)cc2)sc2c1CCC(O)=C2        9.26% (active)
32  COc1cccc(/C=N/NC(=O)c2ccc3nc(-c4ccc(Cl)cc4)[nH]c3c2)c1O       -78.5% (active)
33  CN1CCN(Cc2ccc(NC(=O)c3cncc(C#Cc4cnc5ccc(N[C@@H]6CCOC6)nn45)c3)cc2C(F)(F)F)CC1       -88.1% (active)
34  COc1ccc(-c2nc(Nc3ccccc3S(N)(=O)=O)c3ccccc3n2)cc1        9.02% (active)
35  CCCn1c(=O)c2[nH]c(-c3ccc(OCc4nc5ccc(C)cc5[nH]4)cc3)nc2n(CCC)c1=O      17.6% (inactive)
36  CC(=O)Nc1ccc(-n2cnc3cc(-c4ccc(O)cc4)ccc32)cc1F      26.3% (inactive)
37  COc1cc2c3c(n(CCCNCCO)c(=O)c2cc1OC)-c1nc2c(cc1C3=O)OCO2       -11.4% (active)
38  O=C(Nc1cccc(C(F)(F)F)c1)c1cncc(C#Cc2cnc3cccnn23)c1        8.36% (active)
39  O=C(NCCCCCCCCCC[P+](c1ccccc1)(c1ccccc1)c1ccccc1)c1ccc(-n2nc(-c3ccccc3O)nc2-c2ccccc2O)cc1         -87% (active)

---

Test system: SK-MEL-2 melanoma
method_description: NCI-60 one-dose screen, 48 h
condition_set: 10 µM
This is part of a sample that, as a whole, favours compounds with a hit. Of some 83,000 tested, about 20% had one in any assay. Calls of active or inactive are those of the source. How the source made its calls: active means growth percent below 10; inactive means the rest.
Labels: true (1) (active), false (0) (inactive)

> print(dat)
                                    compound  group.label
 1  COc1cc(/C=N/NC(=O)c2ccc3nc(-c4ccc(Cl)cc4)[nH]c3c2)cc(OC)c1OC     true (1)
 2  O=C(CSc1nnc(-c2c[nH]c3ccccc23)n1-c1ccccc1)c1ccc(Br)cc1     true (1)
 3  CCOC(=O)N/C(=C1/OCCN1C)[P+](c1ccccc1)(c1ccccc1)c1ccccc1    false (0)
 4  COC[C@@H](CC(C)C)N=C1NC(=O)/C(=C/c2ccc3ncsc3c2)N1     true (1)
 5  C=C[C@@]12CN3CC[C@]1(O)[C@@](C(=O)OC)(CO2)c1[nH]c2ccccc2c1C3    false (0)
 6  COc1ccc(OC)c(-c2cc(-c3c[nH]c4ccccc34)nc(N)c2C#N)c1     true (1)
 7  Cc1cc(C)nc(NS(=O)(=O)c2ccc(N/C(N)=N/c3nccc(-c4cccs4)n3)cc2)n1    false (0)
 8  CCCn1c(=O)c2[nH]c(-c3ccc(OCc4nc5ccc(C#N)cc5[nH]4)cc3)nc2n(CCC)c1=O    false (0)
 9  Cc1ccc(C(=O)NNC(=O)CSc2nc3ccccc3c(=O)[nH]2)cc1    false (0)
10   O=C(Nc1cc(Cl)cc(Cl)c1)Nc1cc(Cl)cc(Cl)c1     true (1)
11  O=C(Nc1ccc(Cl)c([N+](=O)[O-])c1)Nc1ccc(Cl)c([N+](=O)[O-])c1    false (0)
12  COc1ccc(C(=O)/C=C/c2cc(C(F)(F)F)cc(C(F)(F)F)c2)cc1S(N)(=O)=O     true (1)
13  CCOC(=O)C1=C(N)N(c2ccccc2)C2=C(C(=O)CC(C)(C)C2)C1c1ccccc1OC (stereo not drawn)    false (0)
14  CC(=O)c1ccc(Nc2nc(SCCC(C)C)nc(-c3ccc(F)cc3)c2C#N)cc1    false (0)
15  CCOP(=O)(OCC)O[C@H]1CC[C@]2(C)[C@H]3CC[C@@H]4[C@@H]([C@](C)(O)CCC=C(C)C)CC[C@@]4(C)[C@]3(C)CC[C@H]2C1(C)C    false (0)
16  COC(=O)C[C@](O)(CCCC(C)(C)O)C(=O)O[C@H]1C(OC)=C[C@@]23CCC(=O)N2CCc2cc4c(cc2[C@@H]13)OCO4    false (0)
17  C/C(=N\N=C\c1ccc(N(C)C)cc1)c1ccc2c(c1)Nc1ccccc1S2    false (0)
18  CC(=O)Nc1ccc(-c2cn(-c3cccc(C(=O)Nc4cccc(OC(F)(F)F)c4)c3)nn2)cn1    false (0)
